I'd appreciate it if you could supply Inhibition values for the items below.
Test system: Staphylococcus aureus
Details: Concentration 32 ug.mL-1;; ASSAY_TEST Inhibition of Bacterial Growth; detection method Absorption (OD600); MEDIA CAMHB; plate type 384well; NBS; CORNING #3640; time 18 hr
Description: Antibacterial activity against Staphylococcus aureus MRSA ATCC 43300 (CO-ADD:GP_020); MIC in CAMBH media, using NBS plates, by OD(600)
Measured potencies and affinities stand elsewhere.
Answers are plain numbers, in %.

Study these solved cases before continuing.
Field Inhibition (entry COc1ccc(NC(=O)Cn2nc3c(SC4CCCCC4)nccn3c2=O)cc1OC ) reads 4.77

Field Inhibition (entry O=C(CSc1nnc2c(=O)n(-c3ccc(Br)cc3)ccn12)Nc1ccc(F)cc1 ) reads 9.36

Field Inhibition (entry Cc1nnc2c(=O)n(CC(=O)Nc3ccc(F)cc3F)c3ccccc3n12 ) reads 10.56

Field Inhibition (entry Cc1ccc(Cl)cc1NC(=O)CSc1nnc2ccc(C(=O)Nc3cccc(F)c3)cn12 ) reads 14.11

Batch lookup, Inhibition per entry.
1. CCc1cccc(NC(=O)Cn2nc3c(Sc4ccc(C)cc4C)nccn3c2=O)c1
2. COc1ccc(CNC(=O)CSc2nnc3c4cc(-c5ccc(C)cc5)nn4ccn23)cc1OC

Solution:
-6.82
5.65

Batch lookup, Inhibition per entry.
1. O=S(=O)(c1ccc2nncn2c1)N(Cc1cccc(F)c1)c1ccc2c(c1)OCCO2
2. CCCc1nnc2c(=O)n(CC(=O)Nc3cccc(Br)c3)c3ccccc3n12
3. COc1cccc(Sc2nc3ccccc3n3c(=O)n(CC(=O)Nc4ccccc4)nc23)c1
4. O=C(CSc1nnc2c(=O)n(-c3ccccc3)ccn12)NCc1ccc(Cl)cc1
5. O=C(CSc1nnc2c(=O)n(-c3ccccc3)ccn12)Nc1cccc(Cl)c1
6. CCc1nnc2c(SCC(=O)Nc3cc(Cl)ccc3OC)nc3ccccc3n12
7. N#Cc1ccc(NC(=O)Cn2nc3c(SCc4ccc(Cl)cc4)nccn3c2=O)cc1
8. CC(C)c1nnc2c(=O)n(CC(=O)Nc3cccc(F)c3)c3ccccc3n12

Solution:
[1.17, 8.23, -1.75, 9.66, 1.05, 7.98, 9.38, 22.23]

###

Test system: Escherichia coli
Conditions: Concentration 32 ug.mL-1;; ASSAY_TEST Inhibition of Bacterial Growth; detection method Absorption (OD600); MEDIA CAMHB; plate type 384well; NBS; CORNING #3640; time 18 hr
Description: Antibacterial activity against Escherichia coli ATCC 25922 (CO-ADD:GN_001); MIC in CAMBH media using NBS plates, by OD(600)
Results with a measured potency or affinity are listed apart.
I'd appreciate it if you could supply Inhibition values for the items below.
Answers are plain numbers, in %.

Field Inhibition (entry O=S(=O)(c1ccc2nncn2c1)N(Cc1cc(F)cc(F)c1)c1ccc2c(c1)OCO2 ) reads -5.98

Field Inhibition (entry Cc1ccc(Sc2nccn3c(=O)n(CC(=O)Nc4cc(Cl)ccc4C)nc23)c(C)c1 ) reads -11.77

Batch lookup, Inhibition per entry.
1. CC(C)NC(=O)CSc1nnc2c(=O)n(-c3ccccc3)ccn12
2. Cc1nnc2c(=O)n(CC(=O)Nc3ccccc3F)c3ccccc3n12
3. COc1ccc(NC(=O)Cn2nc3c4cc(-c5ccc(OC)cc5)nn4ccn3c2=O)cc1
4. Cc1cc(Nc2ccc(F)cc2)nc2nn(CCc3ccccc3)c(=O)n12
5. Cc1cc(C)c(NC(=O)Cn2nc3c(Sc4cccc(F)c4)nccn3c2=O)c(C)c1
6. Cc1ccc(-c2ccc3nn(Cc4nc(-c5ccc(Cl)cc5)no4)c(=O)n3n2)cc1C
7. Cc1ccc(-c2cc3c4nn(CC(=O)Nc5c(C)cccc5C)c(=O)n4ccn3n2)cc1

Solution:
1: 1.35; 2: 1.77; 3: 2.94; 4: -5.44; 5: -1.39; 6: -6.42; 7: 0.29

Batch lookup, Inhibition per entry.
1. Cc1cc(C)cc(Nc2nc(C)cc3nn(CC(=O)Nc4ccccc4)c(=O)n23)c1
2. O=C(Cn1nc2ccc(SC3CCCCC3)nn2c1=O)Nc1ccc(F)c(F)c1
3. COc1ccccc1NC(=O)Cn1c(=O)c2nnc(C(C)C)n2c2ccccc21

Solution:
1: -6.45; 2: -6.38; 3: -0.08

Batch lookup, Inhibition per entry.
1. COc1ccc2[nH]cc(C(=O)CSc3nnc4c(=O)n(-c5ccc(F)cc5)ccn34)c2c1
2. CCC(Sc1nnc2c(=O)n(-c3cccc(OC)c3)ccn12)C(=O)Nc1ccccc1C (stereo unspecified)

Solution:
1. -2.83
2. -2.17

Batch lookup, Inhibition per entry.
1. COc1cccc(CNC(=O)CSc2nnc3c(=O)n(-c4cccc(OC)c4)ccn23)c1
2. CCN(CCCNC(=O)CCc1nnc2ccc(-c3ccc(C)c(C)c3)nn12)c1ccccc1
3. Cc1cccc(Sc2nc3ccccc3n3c(=O)n(CC(=O)Nc4c(C)cc(C)cc4C)nc23)c1
4. Cc1ccc(C(=O)C(C)Sc2nnc3c(=O)n(-c4ccc(F)c(F)c4)ccn23)cc1C (stereo unspecified)
5. CSc1cccc(NC(=O)Cn2nc3c(N4CCCC(C)C4)nccn3c2=O)c1 (stereo unspecified)
6. CCCc1nnc2c(=O)n(CC(=O)Nc3cccc(C(C)=O)c3)c3ccccc3n12
7. Cc1ccc(Oc2nccn3c(=O)n(CC(=O)Nc4ccccc4Br)nc23)cc1
8. CCOC(=O)c1ccc(NC(=O)Cn2nc3c(SCc4ccc(Cl)cc4)nccn3c2=O)cc1

Solution:
1. 0.96
2. -5.52
3. -2.19
4. 1.41
5. -14.98
6. -14.35
7. -0.96
8. -14.83

Reference for the values: ChEMBL document CHEMBL4513146
